test system: UACC-257; test: NCI tumour cell line growth inhibition, 48 h
Calls of active or inactive are those of the source. Rule as the data show it: active = GI50 up to about 1.1 µM and inactive = higher.
recorded endpoint: GI50

- compound: "CCOC(=O)c1ccc(/N=c2/[nH]c3ccccc3s/c2=N/c2ccc(C(=O)OCC)cc2)cc1"
  recorded endpoint: "GI50"
  readout value: "> 100 µM (inactive)"
- compound: "COc1cc2c(cc1OCCCCN1C(=O)c3cccc4cccc(c34)C1=O)N=C[C@@H]1CCCN1C2=O"
  recorded endpoint: "GI50"
  readout value: "7.05 µM (inactive)"
- compound: "CN(C)/C=N/c1ccc2nonc2c1"
  recorded endpoint: "GI50"
  readout value: "> 100 µM (inactive)"
- compound: "COC(=O)C1=C(O)c2cc(OC)c(OC)c(OC)c2[C@H](c2cc(OC)c(OC)c(OC)c2)C1C(=O)OC (stereo not given in full)"
  recorded endpoint: "GI50"
  readout value: "44.4 µM (inactive)"
- compound: "COc1ccc(NC(S)=Nc2cccc(C)n2)cc1"
  recorded endpoint: "GI50"
  readout value: "> 100 µM (inactive)"
- compound: "CC1(C)[N+]([O-])=[N+]([O-])C1(C)Br (stereo not given)"
  recorded endpoint: "GI50"
  readout value: "> 100 µM (inactive)"
- compound: "CN(C)CCCNc1ccc2ncn3c4ccc(O)cc4c(=O)c1c23"
  recorded endpoint: "GI50"
  readout value: "8.09 µM (inactive)"
- compound: "O=C(O)CNc1c2ccccc2[n+]([O-])c2ccccc12"
  recorded endpoint: "GI50"
  readout value: "> 100 µM (inactive)"
- compound: "C[C@H]1C[C@H](C)c2ccccc2N(C)/C1=N\\c1ccccc1"
  recorded endpoint: "GI50"
  readout value: "20.3 µM (inactive)"
- compound: "O=[N+]([O-])c1nccn1CC(O)CN1CCCCC1 (stereo not given) [PIMONIDAZOLE]"
  recorded endpoint: "GI50"
  readout value: "> 100 µM (inactive)"

###

tested on: HCT-15
Item-by-item account of GI50
recorded endpoint: GI50

- molecule: "Cc1nc2ccccn2c1/N=N/c1ccc(C(=O)NN)cc1"
  recorded endpoint: "GI50"
  readout value: "54.2 µM"
- molecule: "Cc1nc(C)c(N2CCN(C(=O)NC(CCC(=O)O)C(=O)O)CC2)c(O)n1 (stereo not drawn)"
  recorded endpoint: "GI50"
  readout value: "> 100 µM"
- molecule: "Cc1ccc(SC[C@@]2(C(F)F)NC(=O)NC2=O)cc1"
  recorded endpoint: "GI50"
  readout value: "> 100 µM"
- molecule: "O=C(O)CN1CCSc2ccccc2CN(CC(=O)O)CCSc2ccccc2C1"
  recorded endpoint: "GI50"
  readout value: "> 100 µM"
- molecule: "CCOC(=O)N1C(c2ccccc2)C=CC(c2ccccc2)N1C(=O)OCC (stereo not drawn)"
  recorded endpoint: "GI50"
  readout value: "> 100 µM"
- molecule: "CCCCCC(O)C1C(=O)OC(C)C(O)/C=C/C=C/C=C/C=C\\C=C(\\C)C(O)CC(O)CC(O)CC(O)CC(O)CC(O)CC1O (stereo not drawn)"
  recorded endpoint: "GI50"
  readout value: "> 50 µM"
- molecule: "[C-]#[N+][C@@H]1C2[C@H](CC[C@@]1(C)O)C(=C)CC[C@@H]2[C@@]1(C)CC[C@H](Cl)C(C)(C)O1 (stereo partly drawn)"
  recorded endpoint: "GI50"
  readout value: "2.55 µM"
- molecule: "Oc1ccc([C@H]2c3c(O)cc(O)cc3C3c4c(cc(O)cc4[C@@H]2[C@H]2c4cc(O)cc5c4C(c4cc(O)cc(O)c4[C@@H]2c2ccc(O)cc2)[C@@H](c2ccc(O)cc2)O5)O[C@@H]3c2ccc(O)cc2)cc1 (stereo partly drawn)"
  recorded endpoint: "GI50"
  readout value: "> 100 µM"
- molecule: "CCN(CC)CCC(=O)Nc1ccc2sc3ccccc3c(=O)c2n1"
  recorded endpoint: "GI50"
  readout value: "19.3 µM"
- molecule: "CN(C)/C=N/c1ccc2nonc2c1"
  recorded endpoint: "GI50"
  readout value: "> 100 µM"
- molecule: "Cc1cc(N(CCC#N)CCC#N)ccc1/C=C/C(=O)Nc1ccccc1Cl"
  recorded endpoint: "GI50"
  readout value: "> 100 µM"
- molecule: "COc1nc2ccc(COc3ccc(C(=O)NC(CCC(=O)O)C(=O)O)cc3)cc2nc1OC (stereo not drawn)"
  recorded endpoint: "GI50"
  readout value: "> 10 µM"
- molecule: "O=C(O)c1ccccc1CC(Cc1ccc2c(c1)CCC2)C(=O)O (stereo not drawn)"
  recorded endpoint: "GI50"
  readout value: "> 100 µM"
- molecule: "NNC(=S)N/N=C(\\CCCC(=O)NCCc1ccccc1)CC(=O)c1ccccc1"
  recorded endpoint: "GI50"
  readout value: "> 100 µM"
- molecule: "CCNC(=O)CCN(C(=O)O)S(=O)(=O)c1ccc(NC(=O)c2ccccc2)cc1"
  recorded endpoint: "GI50"
  readout value: "> 100 µM"
- molecule: "C[C@H]1C[C@H](C)c2ccccc2N(C)/C1=N\\c1ccccc1"
  recorded endpoint: "GI50"
  readout value: "37.2 µM"
- molecule: "O=C(O)c1cccc(S(=O)(=O)NN2C(=O)CSC2c2c(O)ccc3ccccc23)c1 (stereo not drawn)"
  recorded endpoint: "GI50"
  readout value: "42.5 µM"
- molecule: "CN(CCC#N)c1ccc(/C=C2\\SC(=S)NC2=O)cc1"
  recorded endpoint: "GI50"
  readout value: "48.2 µM"
- molecule: "O=C1C=C(O)C(=O)c2c(O)ccc(O)c21"
  recorded endpoint: "GI50"
  readout value: "> 100 µM"
- molecule: "Cc1ccc(N2C(N)=C(C#N)C(C#N)(C#N)C2c2ccccc2)cc1 (stereo not drawn)"
  recorded endpoint: "GI50"
  readout value: "6.71 µM"
- molecule: "Cc1ccc(S(=O)(=O)N/N=C2\\C(=O)C3CC2C(Cl)C3Cl)cc1 (stereo not drawn)"
  recorded endpoint: "GI50"
  readout value: "> 100 µM"
- molecule: "CC1(c2nc3ccccc3[nH]2)CCC(C(=O)O)C(C)(C)O1 (stereo not drawn)"
  recorded endpoint: "GI50"
  readout value: "> 100 µM"
- molecule: "NC(=O)C1CCCN1C(=O)C(Cc1c[nH]cn1)NC(=O)C1CCCC1 (stereo not drawn)"
  recorded endpoint: "GI50"
  readout value: "> 100 µM"
- molecule: "CNC1(c2cc3ccccc3s2)CCCCC1"
  recorded endpoint: "GI50"
  readout value: "31.8 µM"
- molecule: "Nc1nc(Cl)cc(NCC2(O)CC(CO)C2)n1 (stereo not drawn)"
  recorded endpoint: "GI50"
  readout value: "> 100 µM"
- molecule: "c1cc(CSP234N5CCN2CCN3CCN4CC5)ccc1CSP123N4CCN1CCN2CCN3CC4"
  recorded endpoint: "GI50"
  readout value: "> 100 µM"
- molecule: "CC(O)C1(CNc2cc(Cl)nc(N)n2)CCCCC1 (stereo not drawn)"
  recorded endpoint: "GI50"
  readout value: "> 100 µM"
- molecule: "CCOC(=O)c1ccc(/N=c2/[nH]c3ccccc3s/c2=N/c2ccc(C(=O)OCC)cc2)cc1"
  recorded endpoint: "GI50"
  readout value: "> 100 µM"
- molecule: "Cc1cc(C)c2c(O)cc(-c3ccc(F)cc3)nc2n1"
  recorded endpoint: "GI50"
  readout value: "47.1 µM"
- molecule: "COCCN(C(C)=O)C1CCC2(SCCS2)c2[nH]c3ccccc3c21 (stereo not drawn)"
  recorded endpoint: "GI50"
  readout value: "> 100 µM"
- molecule: "O=c1c2c(nc3[nH]ccn13)CCC2"
  recorded endpoint: "GI50"
  readout value: "> 10 µM"
- molecule: "Cc1cccc(-c2cc(O)c3cc(C)cnc3n2)c1"
  recorded endpoint: "GI50"
  readout value: "0.183 µM"
- molecule: "CN(C)/C=N\\c1cccc2cnccc12"
  recorded endpoint: "GI50"
  readout value: "> 100 µM"
- molecule: "CCOC(=O)c1cc(C(O)P2(=O)N(CC(C)(C)C)[C@@H]3CCCC[C@H]3N2CC(C)(C)C)cn1C(=O)OC(C)(C)C (stereo partly drawn)"
  recorded endpoint: "GI50"
  readout value: "17.1 µM"
- molecule: "Cc1cc(S(=O)(=O)Nc2nc3ccccc3nc2-c2ccc(Cl)cc2)c(S)cc1Cl"
  recorded endpoint: "GI50"
  readout value: "20.1 µM"
- molecule: "CN1CCOC(c2ccc(Cl)cc2)O1 (stereo not drawn)"
  recorded endpoint: "GI50"
  readout value: "> 100 µM"
- molecule: "COC(=O)CCC(NC(=S)N/N=C(\\C)c1cnccn1)C(=O)OC (stereo not drawn)"
  recorded endpoint: "GI50"
  readout value: "44.5 µM"
- molecule: "NNC(=O)c1ccc[n+](CCc2ccccc2)c1"
  recorded endpoint: "GI50"
  readout value: "> 100 µM"
- molecule: "CC1=CC(=O)c2c(O)cccc2C1=O"
  recorded endpoint: "GI50"
  readout value: "1.7 µM"
- molecule: "O=C1OC(c2ccccc2)=N/C1=C\\c1ccc([N+](=O)[O-])cc1"
  recorded endpoint: "GI50"
  readout value: "> 100 µM"
- molecule: "CCOC(=O)C1(C/C=C\\CBr)CCCCCCC1=O (stereo not drawn)"
  recorded endpoint: "GI50"
  readout value: "> 100 µM"
- molecule: "[O-][S+](c1ccccc1)C1CC2CC3(CCC21O)OCCO3 (stereo not drawn)"
  recorded endpoint: "GI50"
  readout value: "> 100 µM"
- molecule: "c1ccc2cc3[s+]snc3cc2c1"
  recorded endpoint: "GI50"
  readout value: "> 100 µM"
